biological target: acetylcholinesterase from electric eel (Electrophorus electricus, UniProt O42275); construct: purchased Sigma Chemical; host or cells: electric eel; experiment: biochemical; conditions: read-out: Cholinesterase Inhibition IC50, AChE E.eel; contact time 10'
Sequence (O42275 24-633): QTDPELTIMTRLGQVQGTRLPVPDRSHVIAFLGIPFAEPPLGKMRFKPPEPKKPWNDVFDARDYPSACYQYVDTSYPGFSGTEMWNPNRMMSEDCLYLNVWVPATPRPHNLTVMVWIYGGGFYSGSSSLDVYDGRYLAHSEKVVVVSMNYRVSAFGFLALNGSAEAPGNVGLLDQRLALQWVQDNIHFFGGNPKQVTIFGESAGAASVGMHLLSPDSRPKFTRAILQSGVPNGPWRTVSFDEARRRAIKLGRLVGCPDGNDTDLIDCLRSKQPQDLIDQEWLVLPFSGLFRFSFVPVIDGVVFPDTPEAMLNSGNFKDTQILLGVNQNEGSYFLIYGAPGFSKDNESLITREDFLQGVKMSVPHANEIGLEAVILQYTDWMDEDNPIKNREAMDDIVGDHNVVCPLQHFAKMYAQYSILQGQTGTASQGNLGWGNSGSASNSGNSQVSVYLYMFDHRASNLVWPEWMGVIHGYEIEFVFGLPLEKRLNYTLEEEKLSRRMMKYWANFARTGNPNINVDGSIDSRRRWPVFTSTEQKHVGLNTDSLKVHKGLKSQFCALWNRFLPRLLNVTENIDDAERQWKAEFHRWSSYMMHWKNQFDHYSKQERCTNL
test.readout: pIC50
Keep in mind that pIC50 stands for -log10 of concentration in molar terms.

In: Which pIC50 is reported for this compound? CN1CC[C@@]2(C)c3cc(OC(=O)NCCCCCCCCCN4CCOCC4)ccc3N(C)[C@@H]12
Out: 6.85

---

target: acetylcholinesterase from electric eel (Electrophorus electricus, UniProt O42275); construct: purchased Sigma Chemical; host or cells: electric eel; test: biochemical; conditions: Cholinesterase Inhibition IC50, AChE E.eel, contact time 60'
test.readout: pIC50
Keep in mind that pIC50 stands for -log10 of concentration in molar terms.

In: Which pIC50 is reported for this molecule? CCN(CC)CCCCCCCCNC(=O)Oc1ccc2c(c1)[C@]1(C)CCN(C)[C@@H]1N2C [MF 237]
Out: 6.92
